Target: T1, PD-1-His (S1352, Y-Biologics) (UniProt Q15116 25-170, limits assumed)
T1 construct: not shown: His tag
T1 sequence (Q15116 25-170 limits assumed): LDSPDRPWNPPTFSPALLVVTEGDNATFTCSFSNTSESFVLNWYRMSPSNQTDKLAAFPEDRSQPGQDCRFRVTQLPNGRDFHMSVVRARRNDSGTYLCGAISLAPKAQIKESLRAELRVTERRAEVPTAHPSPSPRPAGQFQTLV
Experiment: competition ELISA: PD-L2-Fc coated, PD-1-His as binder, antibody as competitor
RECORDED_METRIC: IC50 (nM)
Give bare numbers, in nM.

Sure, the documented IC50 for PD1-45D6 (antibody, V domains shown, scFv-phage in the screening ELISA; whole IgG in the other assays) VH: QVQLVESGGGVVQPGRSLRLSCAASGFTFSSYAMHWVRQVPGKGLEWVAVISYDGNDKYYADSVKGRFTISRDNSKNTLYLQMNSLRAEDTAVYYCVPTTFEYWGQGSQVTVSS VL: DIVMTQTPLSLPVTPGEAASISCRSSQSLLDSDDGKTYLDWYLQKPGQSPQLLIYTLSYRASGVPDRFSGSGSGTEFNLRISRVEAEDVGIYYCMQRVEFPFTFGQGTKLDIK is 49.6
